Experiment: Pharmacokinetic / bioavailability study after single oral administration, plasma LC-MS/MS
Format: in vivo, Sprague-Dawley rats
Conditions: male, Sprague-Dawley, rat, plasma, rats, 100 mg/kg, mean ± SD, n = 6
measure: MRT (h)
Use h as the unit, but write only the number.

Looking for the measured MRT of CC(C)=CCC[C@](C)(O[C@@H]1O[C@H](CO)[C@@H](O)[C@H](O)[C@H]1O)[C@H]1CC[C@]2(C)[C@@H]1[C@H](O)C[C@@H]1[C@@]3(C)CC[C@H](O)C(C)(C)[C@@H]3[C@@H](O[C@@H]3O[C@H](CO)[C@@H](O)[C@H](O)[C@H]3O[C@@H]3O[C@@H](C)[C@H](O)[C@@H](O)[C@H]3O)C[C@]12C [G-Re, Ginsenoside Re] , can you help?
5.15
